# Tested on: HT29 colon
# experiment notes: NCI tumour cell line growth inhibition, 48 h
measurement label: TGI

// worked examples, TGI included
>>> result("CC(C)[C@H]1C(=O)N[C@@H](CCCN=C(N)N)C(=O)NCC(=O)N[C@@H](CC(=O)O)C(=O)N[C@H](Cc2ccccc2)C(=O)N1C")
"> 100 µM"
>>> result("Nc1ccc(S(=O)(=O)NCc2nccs2)cc1")
"31.3 µM"
>>> result("Oc1ccccc1-c1nc2c3ccccc3c3ccccc3c2[nH]1")
"27 µM"
>>> result("O=C1c2ccccc2-n2c1nc1ccccc1c2=O")
"51.2 µM"
>>> result("Cc1cc(N/N=C/c2nc(-c3ccc(Cl)cc3)oc2C)c2cc(Cl)ccc2n1")
"4.95 µM"

Input: # query: TGI of entry Cc1c(NC2(C)C(=O)N(/N=C/c3ccccc3)N=C2c2ccccc2)n[nH]c1-c1ccccc1 (stereo unspecified)
Output: > 100 µM

Input: How about this compound: CN(Cc1cnc2nc(N)nc(N)c2n1)c1ccc(C(=O)NC(CCC(=O)NC(P(=O)(O)O)P(=O)(O)O)C(=O)O)cc1 (stereo unspecified)
Output: > 100 µM

Input: One more compound: `Clc1ccc(N=c2oc3ccccc3cc2-c2nc3ccccc3[nH]2)c(Cl)c1`
Output: > 100 µM

Input: Check `COc1cc2c(cc1OC)-c1c3c(cc4c1[C@@H](C2)N(C)CC4)OCO3` too.
Output: 28.8 µM

Input: Another compound: `CCN(CCNc1ccc(C)c2sc3ccccc3c(=O)c12)CC(C)(C)O`
Output: 7.84 µM

Input: Entry `Nc1cc(N2CCCC2)nc(=O)n1Cc1ccccc1` please
Output: > 100 µM

Input: Then this compound: `COc1cccc(-c2cc(=O)c3ccc(C)nc3[nH]2)c1`
Output: > 100 µM

Input: Continue with `Cc1c2cc[n+](C)cc2c(C)c2c1[nH]c1ccc(O)c(OCC(F)(F)F)c12`
Output: > 55 µM

Input: Can you handle CC1(Cl)CC2C(CC1Sc1nnnn1-c1ccccc1)C2(C)C (stereo unspecified) next?
Output: > 100 µM

Input: Now try `CC1(COS(=O)(=O)OCC2(C)COS(=O)(=O)OC2)COS(=O)(=O)OC1` .
Output: > 69.6 µM

Input: Would you kindly repeat that for `NNc1nncn1N` ?
Output: > 100 µM

Input: And then `CCCCOCn1c(=O)[nH]c(=O)c2cc(Br)ccc21` , what is it?
Output: > 100 µM
